These measurements were taken from patent US12358948B2.

Each entry below carries its reported Selectivity.
target_under_test: hNTS2 receptor (Homo sapiens, UniProt O95665)
Construct: membranes prepared from them
Sequence (O95665 whole entry): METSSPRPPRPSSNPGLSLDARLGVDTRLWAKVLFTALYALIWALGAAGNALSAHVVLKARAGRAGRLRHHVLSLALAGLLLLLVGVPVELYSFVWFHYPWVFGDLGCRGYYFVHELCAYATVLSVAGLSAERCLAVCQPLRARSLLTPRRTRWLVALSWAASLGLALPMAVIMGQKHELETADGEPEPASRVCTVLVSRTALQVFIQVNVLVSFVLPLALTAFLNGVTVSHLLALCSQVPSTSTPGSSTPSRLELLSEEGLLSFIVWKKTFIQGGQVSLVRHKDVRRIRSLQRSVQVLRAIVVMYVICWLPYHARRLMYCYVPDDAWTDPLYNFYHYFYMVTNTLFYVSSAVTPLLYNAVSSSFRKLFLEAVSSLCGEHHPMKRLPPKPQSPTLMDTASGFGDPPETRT
assay_details: Competitive radioligand binding assay on the hNTS2 receptor
details: ratio IC50 for NTS1 : IC50 for NTS2
Experimental: CHO-K1 (Chinese Hamster Ovary) cells stably expressing hNTS1 and 1321N1 cells stably expressing hNTS2 (ES-690-C and ES-691-C from PerkinElmer, Montréal, Canada) were cultured respectively in Ham's F12 and in DMEM culture media. […] The cells expressing hNTS1 were frozen when they reached 80% confluency. […] Glass filters were then counted using a γ-counter (2470 Wizard2, PerkinElmer, Mississauga, Ontario, Canada). […]
Where a SMILES comes first, the peptide text is derived from it. Bridges are numbered along the chain shown (N, C = ends). [ ]: non-standard residue; d: D form. dAllylGly = C=CC[C@@H](N)C(=O)O; dTic = O=C(O)[C@H]1Cc2ccccc2CN1; AllylGly = C=CC[C@H](N)C(=O)O; Nle = CCCC[C@H](N)C(=O)O; Dab = NCC[C@H](N)C(=O)O; Nva = CCC[C@H](N)C(=O)O

Recorded Selectivity, per entry:
CCC[C@@H]1NC(=O)[C@H](CCCCN)NC(=O)[C@@H](N)CC=CC[C@@H](C(=O)N[C@@H](Cc2ccc(O)cc2)C(=O)N[C@@H](CC(C)C)C(=O)O)NC1=O [compound 58, c[G(All)KNvaG(All)]YL] (H-[AllylGly]K[Nva][AllylGly]YL-OH; staple 1-4) : >137
CC(C)C[C@H](NC(=O)[C@H]1Cc2ccccc2CN1C(=O)[C@@H]1CC=CC[C@H](N)C(=O)N[C@@H](CCCCN)C(=O)N[C@@H](CCCCN)C(=O)N1)C(=O)O [compound 163, c[G(All)KKG(All)]G(Tic)L] (H-[AllylGly]KK[AllylGly][dTic]L-OH; staple 1-4) : 10
CC(C)C[C@H](NC(=O)[C@H](Cc1ccc(O)cc1)NC(=O)[C@H]1CC=CC[C@H](N)C(=O)N[C@@H](CCCCN)C(=O)N[C@@H](CCCCN)C(=O)N1)C(=O)O [compound 40, c[G(All)KKG*(All)]YL] (H-[AllylGly]KK[dAllylGly]YL-OH; staple 1-4) : >85

In one line, give reported Selectivity of the entry CC(C)C[C@H](NC(=O)[C@H](Cc1ccc(O)cc1)NC(=O)[C@@H]1CC=CC[C@H](N)C(=O)N[C@@H](CCCCN)C(=O)N[C@@H](Cc2c[nH]cn2)C(=O)N1)C(=O)O [compound 55, c[G(All)KHG(All)]YL] (H-[AllylGly]KH[AllylGly]YL-OH; staple 1-4) .
>175

In one line, give reported Selectivity of the entry CC(C)C[C@H](NC(=O)[C@H](Cc1ccc(O)cc1)NC(=O)[C@@H]1CCC(=O)NCC[C@H](N)C(=O)N[C@@H](CCCCN)C(=O)N[C@@H](CCCCN)C(=O)N1)C(=O)O [compound 99, c[DabKKE]YL] (H-[Dab]KKEYL-OH; lactam 1-4) .
>9

In one line, give reported Selectivity of the entry CC(C)C[C@H](NC(=O)[C@@H](CCCCN)NC(=O)[C@@H]1CC=CC[C@H](N)C(=O)N[C@@H](CCCCN)C(=O)N[C@@H](CCCCN)C(=O)N1)C(=O)O [compound 48, c[G(All)KKG(All)]K*L] (H-[AllylGly]KK[AllylGly][dK]L-OH; staple 1-4) .
>10

In one line, give reported Selectivity of the entry CC(C)C[C@H](NC(=O)[C@H](Cc1ccc(O)cc1)NC(=O)[C@@H]1CC=CC[C@H](N)C(=O)N[C@@H](CCCCN)C(=O)N[C@@H](CCC(=O)O)C(=O)N1)C(=O)O [compound 61, c[G(All)KEG(All)]YL] (H-[AllylGly]KE[AllylGly]YL-OH; staple 1-4) .
>8.

In one line, give reported Selectivity of the entry CCCC[C@@H]1NC(=O)[C@H](CCCCN)NC(=O)[C@@H](N)CC=CC[C@@H](C(=O)N[C@@H](Cc2ccc(O)cc2)C(=O)N[C@@H](CC(C)C)C(=O)O)NC1=O [compound 57, c[G(All)KNleG(All)]YL] (H-[AllylGly]K[Nle][AllylGly]YL-OH; staple 1-4) .
>140
